Cited source for all entries: the CheMixHub drug solubility set

Assay: xn = mol fraction of the nth substance listed, in the solute-free solvent
Conditions: 293.15 K; x2 = 0.9
ENDPOINT_NAME: solubility (g/100 g solution)
# respond with the number and nothing more

The cases that follow already have their solubility (g/100 g solution) on record.
>  <COMPOUND>
OCCN(CCO)c1nc(N2CCCCC2)c2nc(N(CCO)CCO)nc(N3CCCCC3)c2n1 + CCO + O

>  <NUMERIC_READOUT>
4.28

$$$$
>  <COMPOUND>
Cc1ncc(C[n+]2csc(CCO)c2C)c(N)n1.O=[N+]([O-])[O-] + O + CC(C)O

>  <NUMERIC_READOUT>
2.33

$$$$
>  <COMPOUND>
Cc1ncc(C[n+]2csc(CCO)c2C)c(N)n1.O=[N+]([O-])[O-] + O + CC(C)=O

>  <NUMERIC_READOUT>
3.11

$$$$
>  <COMPOUND>
OCCN(CCO)c1nc(N2CCCCC2)c2nc(N(CCO)CCO)nc(N3CCCCC3)c2n1 + CO + O

>  <NUMERIC_READOUT>
2.81

$$$$

# ---- query compound ----
Exercise: Name the recorded solubility (g/100 g solution) for S=c1[nH]ncs1 + CCO + O .
Solution: 13.3

###

Experiment: xn = mol fraction of the nth substance listed, in the solute-free solvent
Conditions: 313.15 K; x2 = 0.4
Each entry gets FALSE if its solubility (g/100 g solution) stays under 1, and TRUE if its solubility (g/100 g solution) is 1 or above.

Consider the worked cases shown below.
>  <MOLECULE>
OCCN(CCO)c1nc(N2CCCCC2)c2nc(N(CCO)CCO)nc(N3CCCCC3)c2n1 + CCO + O

>  <GROUP>
TRUE

$$$$
>  <MOLECULE>
S=c1[nH]ncs1 + CO + O

>  <GROUP>
TRUE

$$$$
>  <MOLECULE>
CC(N)C(=O)O (stereo unspecified) + O + CCCO

>  <GROUP>
FALSE

$$$$
>  <MOLECULE>
CC(N)C(=O)O (stereo unspecified) + O + CCO

>  <GROUP>
FALSE

$$$$

Lab note: next molecule to report on.
Exercise: Quick check: does S=c1[nH]ncs1 + CC(C)=O + O have solubility (g/100 g solution) greater than or equal to 1?
Solution: TRUE

###

Assay: xn = mol fraction of the nth substance listed, in the solute-free solvent
Conditions: 293.15 K; x2 = 0.6101
ENDPOINT_NAME: solubility (g/100 g solution)
# respond with the number and nothing more

>  <COMPOUND>
COc1cc2c(cc1OC)-c1cc3ccc(OC)c(OC)c3c[n+]1CC2.[Cl-] + CCO + O

>  <NUMERIC_READOUT>
2.94

$$$$
>  <COMPOUND>
CC(C)OC(=O)C(C)NP(=O)(OCC1OC(n2ccc(=O)[nH]c2=O)C(C)(F)C1O)Oc1ccccc1 (centres undefined) + CCO + O

>  <NUMERIC_READOUT>
24.3

$$$$
>  <COMPOUND>
Nc1cccc(S(=O)(=O)c2cccc(N)c2)c1 + CCO + O

>  <NUMERIC_READOUT>
1.31

$$$$

Exercise: Name the recorded solubility (g/100 g solution) for Cc1[nH]c(=O)c(C#N)cc1-c1ccncc1 + CCO + O .
Solution: 0.00637

###

Items are presented alongside their recorded solubility (g/100 g solution).
Assay: xn = mol fraction of the nth substance listed, in the solute-free solvent
Details: 283.15 K; x2 = 0.5454
# respond with the number and nothing more

The cases that follow already have their solubility (g/100 g solution) on record.
>  <COMPOUND>
c1ccc2[nH]c(-c3cscn3)nc2c1 + CC(C)O + O

>  <solubility (g/100 g solution)>
0.16

$$$$
>  <COMPOUND>
c1ccc2[nH]c(-c3cscn3)nc2c1 + CCCO + O

>  <solubility (g/100 g solution)>
0.37

$$$$
>  <COMPOUND>
Nc1cccc(S(=O)(=O)c2cccc(N)c2)c1 + CC(C)O + O

>  <solubility (g/100 g solution)>
0.424

$$$$
>  <COMPOUND>
CN1CCN(C2=Nc3cc(Cl)ccc3Nc3ccccc32)CC1 + CC(C)O + O

>  <solubility (g/100 g solution)>
0.914

$$$$
>  <COMPOUND>
Cc1[nH]c(=O)c(C#N)cc1-c1ccncc1 + CC(C)O + O

>  <solubility (g/100 g solution)>
0.00978

$$$$

# ---- query compound ----
Exercise: Name the recorded solubility (g/100 g solution) for Nc1nccnc1Cl + CC(C)O + O .
Solution: 0.507

###

Test: xn = mol fraction of the nth substance listed, in the solute-free solvent
Details: 288.15 K; x2 = 0.6101
ENDPOINT_NAME: solubility (g/100 g solution)
# respond with the number and nothing more

>  <COMPOUND>
COc1cc2c(cc1OC)-c1cc3ccc(OC)c(OC)c3c[n+]1CC2.[Cl-] + CCO + O

>  <solubility (g/100 g solution)>
2.39

$$$$

Exercise: Name the recorded solubility (g/100 g solution) for Nc1cccc(S(=O)(=O)c2cccc(N)c2)c1 + CCO + O .
Solution: 1.09

Exercise: Name the recorded solubility (g/100 g solution) for Cc1[nH]c(=O)c(C#N)cc1-c1ccncc1 + CCO + O .
Solution: 0.0054

Exercise: Name the recorded solubility (g/100 g solution) for CC(C)OC(=O)C(C)NP(=O)(OCC1OC(n2ccc(=O)[nH]c2=O)C(C)(F)C1O)Oc1ccccc1 (centres undefined) + CCO + O .
Solution: 20.8

###

Test: xn = mol fraction of the nth substance listed, in the solute-free solvent
Conditions: 313.15 K; x2 = 0.6
Each entry gets no (0) if its solubility (g/100 g solution) stays under 5, and yes (1) if its solubility (g/100 g solution) is 5 or above.

Consider the worked cases shown below.
>  <MOLECULE>
Cc1ncc(C[n+]2csc(CCO)c2C)c(N)n1.O=[N+]([O-])[O-] + O + CC(C)=O

>  <GROUP>
no (0)

$$$$
>  <MOLECULE>
OCCN(CCO)c1nc(N2CCCCC2)c2nc(N(CCO)CCO)nc(N3CCCCC3)c2n1 + CO + O

>  <GROUP>
no (0)

$$$$
>  <MOLECULE>
S=c1[nH]ncs1 + CCO + O

>  <GROUP>
yes (1)

$$$$
>  <MOLECULE>
CC(N)C(=O)O (stereo unspecified) + O + CC(C)=O

>  <GROUP>
no (0)

$$$$
>  <MOLECULE>
CC(N)C(=O)O (stereo unspecified) + O + CO

>  <GROUP>
no (0)

$$$$

Lab note: next molecule to report on.
Exercise: Quick check: does S=c1[nH]ncs1 + CCCO + O have solubility (g/100 g solution) greater than or equal to 5?
Solution: yes (1)

###

Items are presented alongside their recorded solubility (g/100 g solution).
Assay: xn = mol fraction of the nth substance listed, in the solute-free solvent
Details: 298.15 K; x2 = 0.3103
# respond with the number and nothing more

The cases that follow already have their solubility (g/100 g solution) on record.
>  <COMPOUND>
Nc1cccc(S(=O)(=O)c2cccc(N)c2)c1 + CC(C)O + O

>  <solubility (g/100 g solution)>
0.751

$$$$
>  <COMPOUND>
c1ccc2[nH]c(-c3cscn3)nc2c1 + CC(C)O + O

>  <solubility (g/100 g solution)>
0.148

$$$$
>  <COMPOUND>
c1ccc2[nH]c(-c3cscn3)nc2c1 + CCCO + O

>  <solubility (g/100 g solution)>
0.322

$$$$
>  <COMPOUND>
CN1CCN(C2=Nc3cc(Cl)ccc3Nc3ccccc32)CC1 + CC(C)O + O

>  <solubility (g/100 g solution)>
0.781

$$$$
>  <COMPOUND>
Cc1[nH]c(=O)c(C#N)cc1-c1ccncc1 + CC(C)O + O

>  <solubility (g/100 g solution)>
0.0118

$$$$

Exercise: Name the recorded solubility (g/100 g solution) for Nc1nccnc1Cl + CC(C)O + O .
Solution: 0.753

###

Assay: xn = mol fraction of the nth substance listed, in the solute-free solvent
Details: 303.15 K; x2 = 0.4117
Each entry gets Not satisfied if its solubility (g/100 g solution) stays under 1, and Satisfied if its solubility (g/100 g solution) is 1 or above.

Consider the worked cases shown below.
>  <MOLECULE>
c1ccc2[nH]c(-c3cscn3)nc2c1 + CCCO + O

>  <GROUP>
Not satisfied

$$$$
>  <MOLECULE>
c1ccc2[nH]c(-c3cscn3)nc2c1 + CC(C)O + O

>  <GROUP>
Not satisfied

$$$$
>  <MOLECULE>
CN1CCN(C2=Nc3cc(Cl)ccc3Nc3ccccc32)CC1 + CC(C)O + O

>  <GROUP>
Satisfied

$$$$

Exercise: Quick check: does Nc1nccnc1Cl + CC(C)O + O have solubility (g/100 g solution) greater than or equal to 1?
Solution: Satisfied

Exercise: Quick check: does Nc1cccc(S(=O)(=O)c2cccc(N)c2)c1 + CC(C)O + O have solubility (g/100 g solution) greater than or equal to 1?
Solution: Satisfied

Exercise: Quick check: does Cc1[nH]c(=O)c(C#N)cc1-c1ccncc1 + CC(C)O + O have solubility (g/100 g solution) greater than or equal to 1?
Solution: Not satisfied
